Molecular target: T1, GST-MINT1 PDZ domains 1, 2, Q02410
T1 chain: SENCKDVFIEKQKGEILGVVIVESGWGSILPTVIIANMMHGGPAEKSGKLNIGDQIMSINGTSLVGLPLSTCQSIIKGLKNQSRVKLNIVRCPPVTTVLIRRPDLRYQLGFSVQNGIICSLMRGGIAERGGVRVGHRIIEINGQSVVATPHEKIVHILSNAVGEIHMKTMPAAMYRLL
Assay: G assay titration, PDZ 5 ug/ml
Recorded Endpoint: Kd
Give me the value, and tack the unit on after it.

[[record]]
binder = "PIPAGGCTFSGIFPTLTSPL (modifications not checked) [KIA 1481]"
value_measured = "800 nM"


We next turn to a different binder, shown below.
For this binder ( HHLVAQRDIRQFQLQHWLAI (modifications not checked) [noradrenaline transporter] ), measured Kd is 500 nM
